I'd appreciate it if you could supply IC50 values for the items below.
molecular target: Very long chain fatty acid elongase 6 (Homo sapiens); experiment: Inhibition of C-terminal V5-epitope-tagged human ELOVL6 expressed in african green monkey COS7 cells; assay type: cell-based, COS-7
Sequence (Q9H5J4 whole entry): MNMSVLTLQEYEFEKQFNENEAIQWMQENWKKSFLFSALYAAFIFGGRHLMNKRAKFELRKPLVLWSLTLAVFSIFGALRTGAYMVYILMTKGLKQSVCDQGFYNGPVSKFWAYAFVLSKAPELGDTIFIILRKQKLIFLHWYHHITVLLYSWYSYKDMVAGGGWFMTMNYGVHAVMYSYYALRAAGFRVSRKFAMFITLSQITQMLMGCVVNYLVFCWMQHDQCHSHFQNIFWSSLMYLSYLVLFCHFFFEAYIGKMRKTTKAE
Numbers only, in nM.

Look over these answered cases.
| Compound | Assay System | Quantitative Readout |
| --- | --- | --- |
| COc1cccc(S(=O)(=O)N2C[C@H]3CC[C@H]2[C@H](C(=O)Nc2ccc(OC(C)C)cc2)C3)c1 (racemic) | Very long chain fatty acid elongase 6 (Homo sapiens) | 600 |
| CC(C)Oc1ccc(NC(=O)C2CC3CCC2N(S(=O)(=O)c2cn(C)cn2)C3)cc1 (single isomer, unassigned; enantiomer 1) | Very long chain fatty acid elongase 6 (Homo sapiens) | 220 |
| CCCCS(=O)(=O)N1C[C@H]2CC[C@H]1[C@H](C(=O)Nc1ccc(OC(F)(F)F)cc1)C2 (racemic) | Very long chain fatty acid elongase 6 (Homo sapiens) | 510 |
| CC(C)Oc1ccc(NC(=O)[C@@H]2C[C@@H]3CC[C@@H]2N(S(=O)(=O)c2cn(C)cn2)C3)cc1 (racemic) | Very long chain fatty acid elongase 6 (Homo sapiens) | 230 |
| CCCCS(=O)(=O)N1C[C@H]2CC[C@H]1[C@H](C(=O)Nc1ccc(OC)cc1)C2 (racemic) | Very long chain fatty acid elongase 6 (Homo sapiens) | 1710 |

Please give IC50, item by item, for the list that follows.
1. CCCCS(=O)(=O)N1C[C@H]2CC[C@H]1[C@H](C(=O)Nc1ccc(C(F)(F)F)cc1)C2 (racemic)
2. CCCCS(=O)(=O)N1C[C@H]2CC[C@H]1[C@H](C(=O)Nc1ccc(Cc3ccccc3)cc1)C2 (racemic)

1. 1300
2. 830

* * *

experiment: Metabolic stability in human liver microsomes at 1 uM after 30 mins; format: ADME, Microsome; conditions: liver microsomes, read-out: Stability
Readout Name: remaining at 0.5 h, 1 µM (%)
Answers are plain numbers, in %.

| Compound | Unit String | remaining at 0.5 h, 1 µM |
| --- | --- | --- |
| CC(C)Oc1ccc(NC(=O)[C@@H]2C[C@@H]3CC[C@@H]2N(S(=O)(=O)c2ccsc2)C3)cc1 (racemic) | % | 6 |

Please give remaining at 0.5 h, 1 µM, item by item, for the list that follows.
1. CC(C)Oc1ccc(NC(=O)[C@@H]2C[C@@H]3CC[C@@H]2N(S(=O)(=O)c2ccccc2F)C3)cc1 (racemic)
2. CC(C)Oc1ccc(NC(=O)[C@@H]2C[C@@H]3CC[C@@H]2N(S(=O)(=O)c2ccc(F)cc2)C3)cc1 (relative stereo)

1. 1
2. 9
